- System: DU-145
- ASSAY_SUMMARY: Cytotoxicity against human DU145 cells assessed as cell growth inhibition after 24 hrs by MTT assay
- Format: functional, cell-based
- TEST_CONTEXT: DU-145, 24 h
OBSERVATION_TYPE: IC50 (nM)

In [3]: df
Out[3]:
                                   molecule  target_of_assay  observation_type  limit_sign  reported
0  Cc1cc(C)cc(COc2cc3c(cc2OCc2cc(C)cc(C)c2)[C@@H]2C[C@](C)(O)C[C@@H](C)N2CC3)c1           DU-145              IC50           =      1950
1  C[C@@H]1CC(=O)C[C@H]2c3cc(OCc4cccc(F)c4)c(OCc4cccc(F)c4)cc3CCN12           DU-145              IC50           >     20000
2  Cc1cc(C)cc(COc2cc3c(cc2OCc2cc(C)cc(C)c2)[C@@H]2C[C@H](O)C[C@@H](C)N2CC3)c1 (racemic)           DU-145              IC50           =      1960
3  C[C@@H]1CC(=O)C[C@H]2c3cc(OCc4ccc(C(C)(C)C)cc4)c(OCc4ccc(C(C)(C)C)cc4)cc3CCN12 (relative stereo)           DU-145              IC50           >     20000

====

Recorded pIC50, one value per entry.
- System: PC-3
- ASSAY_SUMMARY: Cytotoxicity against human PC3 cells assessed as cell growth inhibition after 24 hrs by MTT assay
- Type: functional, cell-based
- TEST_CONTEXT: PC-3, 24 h
pIC50: −log10 of the molar value.
OBSERVATION_TYPE: pIC50

MOLECULE	OBSERVATION_TYPE	REPORTED
C[C@@H]1C[C@H](O)C[C@H]2c3cc4c(cc3CCN12)OCO4	pIC50	< 4.70
C[C@@H]1CC(=O)C[C@H]2c3cc(OCc4cc(F)cc(F)c4)c(OCc4cc(F)cc(F)c4)cc3CCN12 (relative stereo)	pIC50	< 4.70
C[C@@H]1CC(=O)C[C@H]2c3cc(OCc4ccc(C(C)(C)C)cc4)c(OCc4ccc(C(C)(C)C)cc4)cc3CCN12 (relative stereo)	pIC50	< 4.70
C[C@@H]1C[C@@](C)(O)C[C@H]2c3cc(OCc4cc(C(F)(F)F)cc(C(F)(F)F)c4)c(OCc4cc(C(F)(F)F)cc(C(F)(F)F)c4)cc3CCN12	pIC50	6.21
C[C@@H]1C[C@@](C)(O)C[C@H]2c3cc(OCc4ccc(Br)cc4)c(OCc4ccc(Br)cc4)cc3CCN12	pIC50	6.10
O=C1C[C@@H](c2ccccc2)N2CCc3ccccc3[C@@H]2C1 (relative stereo)	pIC50	< 4.70
O=C1C[C@@H](c2ccccc2)N2CCc3cc(O)c(O)cc3[C@@H]2C1 (relative stereo)	pIC50	< 4.70
COc1ccc([C@@H]2C[C@@H](O)C[C@H]3c4cc(OCc5ccccc5)c(OCc5ccccc5)cc4CCN23)cc1	pIC50	< 4.70
Oc1cc2c(cc1O)[C@@H]1C[C@H](O)C[C@@H](c3ccccc3)N1CC2	pIC50	< 4.70
C/C=C/C(=O)CC1c2cc(OCc3cc(C)cc(C)c3)c(OCc3cc(C)cc(C)c3)cc2CCN1C(=O)OC(C)(C)C (centres undefined)	pIC50	< 4.70
CCOC1c2cc(OCc3cc(C)cc(C)c3)c(OCc3cc(C)cc(C)c3)cc2CCN1C(=O)OC(C)(C)C (centres undefined)	pIC50	< 4.70
C[C@@H]1C[C@@](C)(O)C[C@H]2c3cc(OCc4cccc(F)c4)c(OCc4cccc(F)c4)cc3CCN12	pIC50	6.39
COc1cc([C@@H]2CC(=O)C[C@H]3c4cc(OCc5ccccc5)c(OCc5ccccc5)cc4CCN23)cc(OC)c1OC (relative stereo)	pIC50	< 4.70
O=C1C[C@@H](c2ccc([N+](=O)[O-])cc2)N2CCc3cc(OCc4ccccc4)c(OCc4ccccc4)cc3[C@@H]2C1	pIC50	< 4.70
O[C@H]1C[C@@H](c2ccccc2)N2CCc3ccc(OCc4ccccc4)cc3[C@@H]2C1	pIC50	< 4.70
CC[C@@H]1C[C@H](O)C/C=C(/C)[C@H]2c3cc(OCc4ccccc4)c(OCc4ccccc4)cc3CCN12	pIC50	< 4.70
O[C@@H]1C[C@@H](c2ccccc2)N2CCc3cc4c(cc3[C@@H]2C1)OCO4	pIC50	< 4.70
CCCCCCOc1cc2c(cc1OCCCCCC)[C@@H]1CC(=O)C[C@@H](C)N1CC2 (relative stereo)	pIC50	< 4.70
COc1ccc([C@@H]2C[C@H](O)C[C@H]3c4cc(OCc5ccccc5)c(OCc5ccccc5)cc4CCN23)cc1	pIC50	< 4.70
O[C@@H]1C[C@@H](c2ccccc2)N2CCc3cc(OCc4ccccc4)ccc3[C@@H]2C1	pIC50	< 4.70
COc1ccc([C@@H]2CC(=O)C[C@H]3c4cc(OCc5ccccc5)c(OCc5ccccc5)cc4CCN23)cc1OC (relative stereo)	pIC50	< 4.70
O=C1C=CN2CCc3cc(OCc4ccccc4)c(OCc4ccccc4)cc3C2C1 (centres undefined)	pIC50	< 4.70
CC[C@@H]1CC(=O)C[C@H]2c3cc(OCc4ccccc4)c(OCc4ccccc4)cc3CCN12 (relative stereo)	pIC50	< 4.70
CCCCCCCCCCCCCCCCOc1cc2c(cc1OCCCCCCCCCCCCCCCC)[C@@H]1C[C@@H](O)C[C@@H](C)N1CC2	pIC50	< 4.70
CCC[C@@H]1CC(=O)C[C@H]2c3cc(OCc4ccccc4)c(OCc4ccccc4)cc3CCN12 (relative stereo)	pIC50	< 4.70
C[C@@H]1CC(=O)C[C@H]2c3cc4c(cc3CCN12)OCO4 (relative stereo)	pIC50	< 4.70
C[C@@H]1C[C@@](C)(O)C[C@H]2c3cc(OCc4cc(F)cc(F)c4)c(OCc4cc(F)cc(F)c4)cc3CCN12	pIC50	5.89
CC(=O)O[C@@]12CO[C@@H]1C[C@H](O)[C@@]1(C)C(=O)[C@H](O)C3=C(C)[C@@H](OC(=O)[C@H](O)[C@@H](NC(=O)OC(C)(C)C)c4ccccc4)C[C@@](O)([C@@H](OC(=O)c4ccccc4)[C@H]21)C3(C)C [DOCETAXEL ANHYDROUS]	pIC50	7.89
CCCCCC[C@@H]1CC(=O)C[C@H]2c3cc(OCc4ccccc4)c(OCc4ccccc4)cc3CCN12 (relative stereo)	pIC50	< 4.70

Sourced from ChEMBL document CHEMBL4425094
